# System: Staphylococcus aureus
# assay-procedure: Antibacterial activity against Staphylococcus aureus ATCC 25923 after 24 hrs by spectrophotometric analysis
# Assay type: functional, organism-based
# condition-label: Staphylococcus aureus, ATCC 25923, 24 h
MIC listing for selected compounds.
measured-metric: MIC

compound | experimental-value
COc1ccc(C(c2nnnn2C2CCCCC2)N2CCN(c3cc4c(cc3F)c(=O)c(C(=O)O)cn4Cc3ccc(C(F)(F)F)cc3)CC2)c2ccccc12 (stereo not drawn) | > 50 µg/mL
COc1ccc(C(c2nnnn2C(C)(C)C)N2CCN(c3cc4c(cc3F)c(=O)c(C(=O)O)cn4Cc3ccc(C(F)(F)F)cc3)CC2)c2ccccc12 (stereo not drawn) | > 50 µg/mL
O=C(O)c1cn(Cc2ccc(C(F)(F)F)cc2)c2cc(N3CCN(C(c4cccc5ccccc45)c4nnnn4C4CCCCC4)CC3)c(F)cc2c1=O (stereo not drawn) | > 50 µg/mL
